Please provide measured collision cross section for the entries that follow.
assay: collision cross section of unmodified peptide (TIMS, N2, iRT-aligned); higher = larger / more extended gas-phase ion; conditions: charge state: 2
± gives the standard deviation.

Worked cases, answers included:
>  <substance>
ANLEKAQAELVGTADEATR

>  <collision cross section>
474.85 ± 3.3 Å²

$$$$
>  <substance>
KVTLSVLSR

>  <collision cross section>
348.44 ± 0.58 Å²

$$$$
>  <substance>
CYYGSDTAGR

>  <collision cross section>
353.22 ± 1.1 Å²

$$$$
>  <substance>
GFGRGGAESHTFK

>  <collision cross section>
384.5 ± 0.2 Å²

$$$$
>  <substance>
DYGNSPLHR

>  <collision cross section>
339.65 ± 0.48 Å²

$$$$

Look up collision cross section for the entries below, preserving their order.
1. VGADGTVFATR
2. SQLANTEPTK
3. TGPPGSTGSR
4. SRFYSGFNSR
5. GVEAVGSYAENQR

Result:
1: 348.87 ± 0.14 Å²; 2: 350.96 ± 0.68 Å²; 3: 307.73 ± 0.78 Å²; 4: 370.83 ± 0.54 Å²; 5: 378.71 ± 0.16 Å²

Please give collision cross section for each item listed below.
1. YEEIVKEVSTYIK
2. ETTPSSLAVTQTMATK
3. VQFAPEK
4. TSYAQHQQVR
5. GFALVGVGSEASSKK
6. LQLEIDQKK

Result:
1: 443.47 ± 2.8 Å²; 2: 434.06 ± 0.13 Å²; 3: 317.04 ± 1.1 Å²; 4: 367.57 ± 0.48 Å²; 5: 433.33 ± 1.5 Å²; 6: 366.48 ± 1.6 Å²

Could I get collision cross section for every one of these entries?
1. MFLSFPTTK
2. GPPGPAGPSGESR
3. ILDLKTGTVK
4. GGFQNRGGGSGGGGNYR

Result:
348.96 ± 0.14 Å²
343.88 ± 1 Å²
361.56 ± 1.2 Å²
412.29 Å²

###

assay: collision cross section of modified peptide (TIMS, N2, iRT-aligned); higher = larger / more extended gas-phase ion; details: charge state: 3; modification: Glutarylation
Hi there, I'd appreciate the recorded collision cross section for every entry that follows.
Answers are plain numbers, in Å².

>  <sequence>
TTGFYSGFSEVAEKR [_TTGFYSGFSEVAEK(Gluratylation)R_]

>  <collision cross section / Å²>
517.64

$$$$

Please supply collision cross section for each of the following items, keeping them in order.
1. DLSTVEALQNLKNLK [_DLSTVEALQNLK(Gluratylation)NLK_]
2. GTITVSAQELKDNR [_GTITVSAQELK(Gluratylation)DNR_]
3. IHVQSSSDSSDEPAEKR [_IHVQSSSDSSDEPAEK(Gluratylation)R_]
4. SKHLQEQLNELK [_SK(Gluratylation)HLQEQLNELK_]
5. AGQKLIDVNHYAK [_AGQK(Gluratylation)LIDVNHYAK_]
6. VFIGNLNTLVVKK [_VFIGNLNTLVVK(Gluratylation)K_]

Result:
1: 545.2; 2: 483.37; 3: 511.69; 4: 496.16; 5: 489.6; 6: 495.12

State recorded collision cross section for all listed sequences.
1. DSSPTTNSKLSALQR [_DSSPTTNSK(Gluratylation)LSALQR_]
2. ANLEKAQAELVGTADEATR [_ANLEK(Gluratylation)AQAELVGTADEATR_]
3. FSAYIKNSNPALNDNLEK [_FSAYIK(Gluratylation)NSNPALNDNLEK_]
4. IVSGKDYNVTANSK [_IVSGK(Gluratylation)DYNVTANSK_]

Result:
500.2
584.83
547.09
473.57

For every listed record, write down its collision cross section.
1. LGVATVAKGVCGACK [_LGVATVAK(Gluratylation)GVCGACK_]
2. GGPGSTLSFVGKR [_GGPGSTLSFVGK(Gluratylation)R_]

Result:
1. 500.02
2. 441.96

Batch request: collision cross section for each of the following sequences.
1. SDSGKPYYYNSQTK [_SDSGK(Gluratylation)PYYYNSQTK_]
2. LFVGGIKEDTEEHHLR [_LFVGGIK(Gluratylation)EDTEEHHLR_]
3. INNFSADIKDSK [_INNFSADIK(Gluratylation)DSK_]
4. SITHSTVGSKGEK [_SITHSTVGSK(Gluratylation)GEK_]
5. SPPLPEHQKIPCNSAEPK [_SPPLPEHQK(Gluratylation)IPCNSAEPK_]

Result:
1. 493.09
2. 544.37
3. 469.07
4. 444.81
5. 541.53

Source of measurements: the supplement of paper PMC10598134
